Value source: ChEMBL document CHEMBL5053528

# protocol_notes: Clearance in mouse at 1 mg/kg, iv
# Assay type: ADME, organism-based
# particulars: in vivo

| smiles_data | clearance / mL/min/kg |
| --- | --- |
| CCS(=O)(=O)c1ccc(CNC(=O)c2ccc3c(c2)cc(Cc2ccc(Cl)cc2C(F)(F)F)n3CCF)cc1 | 0.834 |

###

# protocol_notes: Clearance in rat at 1 mg/kg, iv
# Assay type: ADME, organism-based
# particulars: in vivo
Measured clearance by item

| smiles_data | clearance |
| --- | --- |
| CCS(=O)(=O)c1ccc(CNC(=O)c2ccc3c(c2)cc(Cc2ccc(Cl)cc2C(F)(F)F)n3CCF)cc1 | 60.2 mL/min/kg |
| CCS(=O)(=O)c1ccc([C@H](CO)NC(=O)c2ccc3c(c2)cc(Cc2ccc(Cl)cc2C(F)(F)F)n3CCF)cc1 | 16.2 mL/min/kg |

###

# protocol_notes: Oral bioavailability in mouse
# Type: ADME, organism-based
# particulars: in vivo
Entries and their measured bioavailability follow.
observed_property: bioavailability (%)

| smiles_data | unit | numeric_value |
| --- | --- | --- |
| CCS(=O)(=O)c1ccc(CNC(=O)c2ccc3c(c2)cc(Cc2ccc(Cl)cc2C(F)(F)F)n3CCF)cc1 | % | 47.3 |
| CCS(=O)(=O)c1ccc([C@H](CO)NC(=O)c2ccc3c(c2)cc(Cc2ccc(Cl)cc2C(F)(F)F)n3CCF)cc1 | % | 31.7 |

###

# protocol_notes: Drug exposure in tumor of C57BL/6 mouse injected with mouse MC38 cells at 10 mg/kg, po measured 3 hrs post dose on day 25 in combination with anti-mouse PD1 monoclonal antibody at 5 mg/kg, ip by LC/MS analysis
# Assay type: ADME, organism-based, Neoplasm, MC-38
# particulars: time 25 day, read-out: Drug uptake

| smiles_data | unit | concentration at 600 h |
| --- | --- | --- |
| CCS(=O)(=O)c1ccc([C@H](CO)NC(=O)c2ccc3c(c2)cc(Cc2ccc(Cl)cc2C(F)(F)F)n3CCF)cc1 | ng/mL | 2320 |

###

Recorded Cmax for the following compounds
# protocol_notes: Cmax in dog at 2 mg/kg, po
# Format: ADME, organism-based, Canis lupus familiaris
# Design: dose 2 mg/kg, route po
# particulars: in vivo

| smiles_data | Cmax, ng/mL |
| --- | --- |
| CCS(=O)(=O)c1ccc([C@H](CO)NC(=O)c2ccc3c(c2)cc(Cc2ccc(Cl)cc2C(F)(F)F)n3CCF)cc1 | 2080 |
| CCS(=O)(=O)c1ccc(CNC(=O)c2ccc3c(c2)cc(Cc2ccc(Cl)cc2C(F)(F)F)n3CCF)cc1 | 55.9 |

###

# protocol_notes: AUC (0 to t) in rat at 2 mg/kg, po
# Assay type: ADME, organism-based
# Parameters: dose 2 mg/kg, route po
# particulars: in vivo
Recorded AUC(0-t) for the following molecules

| smiles_data | AUC(0-t) |
| --- | --- |
| CCS(=O)(=O)c1ccc(CNC(=O)c2ccc3c(c2)cc(Cc2ccc(Cl)cc2C(F)(F)F)n3CCF)cc1 | 3.73 ng·h/mL |
| CCS(=O)(=O)c1ccc([C@H](CO)NC(=O)c2ccc3c(c2)cc(Cc2ccc(Cl)cc2C(F)(F)F)n3CCF)cc1 | 618 ng·h/mL |
